Molecular target: RBM19(1) (Homo sapiens, UniProt Q9Y4C8)
Sequence: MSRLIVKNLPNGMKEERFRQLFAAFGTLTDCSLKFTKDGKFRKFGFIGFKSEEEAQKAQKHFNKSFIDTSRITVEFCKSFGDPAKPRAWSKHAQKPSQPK
Assay: protein domain microarray probed with biotinylated miRNA; Domain array: 20 mM Tris-HCl pH 7.4, 200 mM KCl, 0.2 mM EDTA, 0.05% NP40, 2 ug/ul heparin, overnight 4 C. ORF array: PBS pH 7.0 with RNase inhibitor, 100 ng RNA; high values mean tight binding
Conditions: ssRNA
QUANTITY_MEASURED: binding signal (fluorescence intensity)
Write the number in fluorescence intensity without appending the unit.

Recorded results for 3 sequences are shown here.
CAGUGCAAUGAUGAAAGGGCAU :: 249
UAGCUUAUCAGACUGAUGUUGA :: 37.3
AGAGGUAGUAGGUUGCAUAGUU :: 400

// next entry
Query: Assign binding signal to the following record: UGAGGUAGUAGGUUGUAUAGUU
Response: 132
